- Tested on: MARIMO
- experiment.summary: cell viability relative to vehicle control; higher = less cytotoxic;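 also: after 48 h exposure read by CellTiter-Glo luminescence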
- setup.conditions: 10 µM; SRSF2 genotype: SRSF2 wt/wt
Entries and their cell viability values follow.
Give the quantity in %, number only.

Solved cases (3 shown):
1. CCCCC(F)(F)[C@@]1(O)CC[C@H]2[C@@H](CC(=O)[C@@H]2CCCCCCC(=O)O)O1 : 98
2. O=C1CCN(c2ccccc2)N1 : 105
3. NCCCC[C@@H]1NC(=O)[C@@H](Cc2ccccc2)NC(=O)[C@H](CC(=O)O)NC(=O)CNC(=O)[C@H](CCCN=C(N)N)NC1=O [Cyclo (-RGDfK)] : 103

Task: Please give the documented cell viability of Cc1cccc2c3c(ccc12)C1=C(C(=O)C3=O)[C@@H](C)CO1 [Dihydrotanshinone I]
Output: 7.12

Task: Please give the documented cell viability of COc1ccccc1N1CCN(CC(O)COc2cccc3ccccc23)CC1 (centres undefined) [Naftopidil (Flivas)]
Output: 71.5

Task: Please give the documented cell viability of Oc1cccc(O)c1O
Output: 104

----------
- System: OCI-AML2
- experiment.summary: cell viability relative to vehicle control; higher = less cytotoxic
- setup.conditions: 10 µM; SRSF2 genotype: wt/wt
Structures can show the parent of a compound that is named as a salt.
value.type: cell viability (%)
Give the quantity in %, number only.

Solved cases (4 shown):
1. COc1ccc2[nH]c(=O)oc2c1 : 93.9
2. C[C@H]1C[C@H]2[C@@H]3C[C@H](F)C4=CC(=O)C=C[C@]4(C)[C@@]3(F)[C@@H](O)C[C@]2(C)[C@@]1(O)C(=O)CO : 120
3. CCn1c(=O)c(-c2ccc(-c3cncs3)cc2Cl)cc2cnc(Nc3ccc(N4CCN(C)CC4)cc3)nc21 : 61.2
4. COc1ccc([C@@H]2Sc3ccccc3N(CCN(C)C)C(=O)[C@@H]2OC(C)=O)cc1 [Diltiazem HCl] : 99.1

Task: Please give the documented cell viability of CC1(C)S[C@@H]2[C@H](NC(=O)C(C(=O)O)c3ccccc3)C(=O)N2[C@H]1C(=O)O (some centres not stated) [Carbenicillin disodium]
Output: 93

Task: Please give the documented cell viability of O=c1cc(N2CCOCC2)oc2c(-c3ccc4c(c3)OCCO4)csc12
Output: 11.7

Task: Please give the documented cell viability of CN[C@@H](C)C(=O)N[C@H](C(=O)N1CCC[C@H]1C(=O)N[C@H]1c2ccccc2C[C@H]1OCC#CC#CCO[C@@H]1Cc2ccccc2[C@@H]1NC(=O)[C@@H]1CCCN1C(=O)[C@@H](NC(=O)[C@H](C)NC)C1CCCCC1)C1CCCCC1
Output: 0.58

----------
- Test system: K562
- experiment.summary: cell viability relative to vehicle control; higher = less cytotoxic
- setup.conditions: 10 µM; SRSF2 genotype: SRSF2 wt/wt
value.type: cell viability (%)
Give the quantity in %, number only.

Task: Please give the documented cell viability of Cn1cnc(-c2cc3nccc(Oc4ccc(NC(=S)NC(=O)Cc5ccccc5)cc4F)c3s2)c1
Output: 71.9

Task: Please give the documented cell viability of NC(=O)c1cnc(N[C@@H]2CCCC[C@@H]2N)nc1Nc1cccc(-n2nccn2)c1
Output: 15.9

----------
- System: MOLM14
- experiment.summary: cell viability relative to vehicle control; higher = less cytotoxic
- setup.conditions: 10 µM; SRSF2 genotype: SRSF2 wt/wt
Where a name gives a salt, the structure may show the parent alone.
value.type: cell viability
Output should be the measured figure followed by the unit it is expressed in.

Solved cases (8 shown):
1) CCCN[C@H]1CCc2nc(N)sc2C1 [Pramipexole dihydrochloride] : 97.8%
2) O=C(Cc1ccc(-c2ccc(OCCN3CCOCC3)cc2)cn1)NCc1ccccc1 : 2.72%
3) C[C@@](Cc1ccc(O)c(O)c1)(NN)C(=O)O [Carbidopa] : 98.4%
4) C/C1=C\CC[C@]23O[C@H]2[C@@H](OC3=O)c2c(C)coc2C1 [Linderane] : 108%
5) C[C@H](NC(=O)C(=O)Nc1ccccc1C(C)(C)C)C(=O)N[C@@H](CC(=O)O)C(=O)COc1c(F)c(F)cc(F)c1F : 101%
6) O=C1C=C2C=C[C@@H](O)[C@H](O)[C@H]2O1 [Griffonilide] : 97.2%
7) Cc1cn([C@H]2C=C[C@@H](CO)O2)c(=O)[nH]c1=O [Stavudine] : 103%
8) CCC(C)(C)c1ccc(CC(C)CN2C[C@@H](C)O[C@@H](C)C2)cc1 (some centres undefined) [Amorolfine Hydrochloride] : 81.4%

Alright, here's another compound for you.
Task: Please give the documented cell viability of COc1ccc2c(c1)c(CC(=O)O)c(C)n2C(=O)c1ccc(Cl)cc1 [Indometacin Sodium]
Output: 101%
